Target: T1, human MSLN-R1-his protein (human, UniProt Q13421 296-390)
T1 construct: Region 1 of human mesothelin, made in HEK293E cells, His-tagged; also called human MSLN-R1 protein; hMSLN-R1-his; not shown: His tag
T1 chain: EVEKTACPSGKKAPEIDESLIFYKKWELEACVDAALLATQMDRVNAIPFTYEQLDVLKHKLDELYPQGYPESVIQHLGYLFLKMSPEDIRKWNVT
Experiment: ELISA on coated MSLN-R1; antibody 0.0001 nM
outcomeMeasure: OD450 (OD450)
Express it in OD450; write the number only.

| binder | unitName | OD450 |
| --- | --- | --- |
| S009-F8-22.23 (antibody, human IgG1, kappa, V domains shown) VH: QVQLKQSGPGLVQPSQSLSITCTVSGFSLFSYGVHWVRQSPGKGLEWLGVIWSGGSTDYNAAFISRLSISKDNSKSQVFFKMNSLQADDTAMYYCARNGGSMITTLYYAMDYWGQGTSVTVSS VL: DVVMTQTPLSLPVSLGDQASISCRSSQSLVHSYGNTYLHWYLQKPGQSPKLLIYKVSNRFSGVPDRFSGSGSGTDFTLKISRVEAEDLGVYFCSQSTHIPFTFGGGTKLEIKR | OD450 | 0.26 |
| S009-F8-12.13 (antibody, human IgG1, kappa, V domains shown) VH: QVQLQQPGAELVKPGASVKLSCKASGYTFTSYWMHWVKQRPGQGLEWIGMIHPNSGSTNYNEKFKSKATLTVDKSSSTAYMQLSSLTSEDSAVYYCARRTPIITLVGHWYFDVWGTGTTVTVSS VL: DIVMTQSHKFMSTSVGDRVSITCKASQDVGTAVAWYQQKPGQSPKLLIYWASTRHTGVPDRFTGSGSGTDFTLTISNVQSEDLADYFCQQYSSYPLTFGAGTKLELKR | OD450 | 0.32 |

Then there is this binder:
Tell me the measured OD450 of S009-F8-24.14 (antibody, human IgG1, kappa, V domains shown) VH: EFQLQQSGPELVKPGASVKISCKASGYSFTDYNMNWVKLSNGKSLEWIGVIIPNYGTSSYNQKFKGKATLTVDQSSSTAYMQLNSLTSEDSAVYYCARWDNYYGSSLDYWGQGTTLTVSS VL: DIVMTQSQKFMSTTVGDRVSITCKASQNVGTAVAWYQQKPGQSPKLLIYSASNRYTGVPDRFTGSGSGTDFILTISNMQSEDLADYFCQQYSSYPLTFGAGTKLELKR , please. 0.05
